Source of measurements: the nanobody polyreactivity screen of Harvey et al. (2022)

assay: yeast display, Sf9 membrane polyspecificity reagent, FACS + sequencing; frameworks hold sequencing errors
ENDPOINT_NAME: polyreactivity (PSR sort gate)

>  <CHAIN_SEQUENCE>
QVQLVESGGGLVQAGGSLRLSCAASGRTFTRYAMGWYRQAPGKERELVAAISLSSGRTYYADSVKGRFTISRDNAKNTVYLQMNSLKPEDTAVYYCAVRSYVVPGKGFGYWGQGTQVTVSS

>  <RESULT_VALUE>
high polyreactivity

$$$$
>  <CHAIN_SEQUENCE>
QVQLVESGGGLVQAGGSLRLSCAASGLTLRRYAMGWYRQAPGKETELVAGITSGGSTYYADSVKGRFTISRDNAKNTVYLQMYSLKPEDTAVYYCAARVRKYYKPYGYWGQGTQVTVSS

>  <RESULT_VALUE>
high polyreactivity

$$$$
